Parameter: IC50. Scope: all listed entries.
Test system: GDF8
Assay: AlphaScreen SureFire p-SMAD3 (Ser423/425) assay, GDF8-stimulated cells
Format: cell-based
Settings: read-out: GDF8: inhibition of GDF8 signaling, GDF pSMAD (MPC11), p-SMAD3 (Ser423/425) AlphaScreen in cell lysate, GDF8 stimulation

compound	IC50
Cc1cc(-c2nc3n(c2-c2ccc4ncsc4c2)CCC3)c(Cl)cc1F [Compound 323]	> 1000 nM
Cc1cc(-c2nc3n(c2-c2ccc4ncccc4c2)CCC3)c(Cl)cc1F [Compound 322]	> 1000 nM
Cc1cc(-c2nc3n(c2-c2ccc4ncsc4c2)CCC3)c(Cl)cc1F [Compound 317]	50 to 100 nM
Cc1cc(-c2nc3n(c2-c2ccc4nccnc4c2)CCC3)c(Cl)cc1F [Compound 318]	50 to 100 nM
Cc1cc(-c2nc3n(c2-c2ccc4ncccc4c2)CCC3)c(Cl)cc1F [Compound 319]	100 to 1000 nM
Cc1cc(-c2nc3n(c2-c2ccc4nccnc4c2)CCC3)c(Cl)cc1F [Compound 321]	> 1000 nM

----------
Parameter: pIC50. Scope: all listed entries.
Tested on: TGF-β
Assay: AlphaScreen SureFire p-SMAD3 (Ser423/425) assay, TGF-β-stimulated cells
Format: cell-based
Details: Mus musculus, MPC-11, read-out: TGF-β: inhibition of TGF-β signaling, TGF-β pSMAD (MPC-11), p-SMAD3 (Ser423/425) AlphaScreen in cell lysate, TGF-β stimulation
pIC50: −log10 of the molar value.

molecule	pIC50
Cc1ccc(F)cc1-c1nc2n(c1-c1ccc3nccnc3c1)CCC2 [Compound 302]	< 6.00
Cc1c(F)ccc(-c2nc3n(c2-c2ccc4ncccc4c2)CCC3)c1Cl [Compound 315]	< 6.00
Clc1ccc(Cl)c(-c2nc3n(c2-c2ccc4ncccc4c2)CCC3)c1 [Compound 343]	6.00 to 7.00
Cc1cc(F)ccc1-c1nc2n(c1-c1ccc3[nH]ncc3c1)CCC2 [Compound 292]	< 6.00
COc1cccc(-c2nc3n(c2-c2ccc4cn[nH]c4c2)CCC3)c1 [Compound 186]	6.00 to 7.00

----------
System: TGF-β
Assay: AlphaScreen SureFire p-SMAD3 (Ser423/425) assay, TGF-β-stimulated cells
Format: cell-based
Details: Mus musculus; p-SMAD3 (Ser423/425) AlphaScreen in cell lysate; MPC-11; TGF-β stimulation; read-out: TGF-β: inhibition of TGF-β signaling, TGF-β pSMAD (MPC-11)
From the text: The p-SMAD-3 (Ser423/425) SureFire® assay has been designed to measure the phosphorylation of endogenous cellular p-SMAD-3 (Ser423/425) in cell lysates and is a system for the screening of both modulators of receptor activation (e.g. agonists and antagonists) as well as agents acting intracellularly, such as small molecule inhibitors of upstream events. The assay will measure p-SMAD-3 (Ser423/425) activation by either cloned or endogenous receptors, and can be applied to primary cells. […]
pIC50: −log10 of the molar value.
Parameter: pIC50. Scope: all listed entries.
readoutLabel: pIC50

compound	result
Fc1ccc(-c2nc3n(c2-c2ccc4ncsc4c2)CCC3)c(F)c1	6.00 to 7.00
Cc1cc(F)c(-c2nc3n(c2-c2ccc4ncnn4c2)CCC3)cc1F	< 6.00
CN(C)CC1CCC2(CC1)Cc1nc(-c3ccc(F)cc3)c(-c3ccc4ncnn4c3)n1C2 (stereo not drawn)	< 6.00
Cc1cccc(-c2nc3n(c2-c2ccc4nccnc4c2)CCC3)c1	6.00 to 7.00
Fc1cccc(F)c1-c1nc2n(c1-c1ccc3[nH]ncc3c1)CCC2	< 6.00
Nc1ncnc2ccc(-c3c(-c4cc(Cl)ccc4F)nc4n3CCC4)cc12	> 7.30
Fc1cc(F)c(F)c(-c2nc3n(c2-c2ccc4ncccc4c2)CCC3)c1	< 6.00
Cc1cc(F)ccc1-c1nc2n(c1-c1ccc3nccn3c1)CCC2	< 6.00
Cc1cccc(-c2nc3n(c2-c2ccc4[nH]cnc4c2)CCC3)c1	6.00 to 7.00
CN1CCC2Cn3c(nc(-c4ccc(F)cc4)c3-c3ccc4ncnn4c3)C2C1 (stereo not drawn)	< 6.00
Fc1ccc(-c2nc3n(c2-c2ccc4nccnc4c2)CCC3)cc1F	< 6.00
Cc1cc(-c2nc3n(c2-c2ccc4ncnn4c2)CCC3)c(F)cc1Cl	< 6.00
Cc1c(-c2nc3n(c2-c2ccc4ncccc4c2)CCC3)ccc(F)c1F	< 6.00
Cc1cc(F)c(Cl)cc1-c1nc2n(c1-c1ccc3ncnn3c1)CCC2	6.00 to 7.00
NC(=O)c1cnc2ccc(-c3c(-c4ccc(F)c(Cl)c4)nc4n3CCC4)cn12	7.00 to 7.30
Cc1cc(F)c(F)cc1-c1nc2n(c1-c1ccc3nccn3c1)CCC2	< 6.00
Cc1cc(-c2nc3n(c2-c2ccc4ncsc4c2)CCC3)cc(Cl)c1F	< 6.00
Cc1cc(-c2nc3n(c2-c2ccc4ncnn4c2)CCC3)cc(Cl)c1F	< 6.00

----------
Parameter: IC50. Scope: all listed entries.
Tested on: TGF-β
Test: AlphaScreen SureFire p-SMAD3 (Ser423/425) assay, TGF-β-stimulated cells
Format: cell-based
Settings: Mus musculus; p-SMAD3 (Ser423/425) AlphaScreen in cell lysate; MPC-11; TGF-β stimulation; read-out: TGF-β: inhibition of TGF-β signaling, TGF-β pSMAD (MPC-11)

molecule	measuredOn	IC50
Cc1c(F)ccc(-c2nc3n(c2-c2ccc4ncnn4c2)CCC3)c1F [Compound 45]	TGF-β	100 to 1000 nM
Fc1cc(F)c(-c2nc3n(c2-c2ccc4nccn4c2)CCN3)cc1F [Compound 108]	TGF-β	< 50 nM
Cc1ccc(-c2nc3n(c2-c2ccc4[nH]ncc4c2)CCC3)c(F)c1F [Compound 248]	TGF-β	> 1000 nM
Fc1ccc(-c2nc3n(c2-c2ccc4cn[nH]c4c2)CCC3)c(F)c1 [Compound 202]	TGF-β	100 to 1000 nM
Fc1cc(F)c(F)c(-c2nc3n(c2-c2cc4cnccc4s2)CCN3)c1 [Compound 112]	TGF-β	< 50 nM
COc1c(C)cc(-c2nc3n(c2-c2ccc4ncsc4c2)CCC3)cc1C [Compound 257]	TGF-β	> 1000 nM
Fc1ccc(-c2nc3occn3c2-c2ccc3nccnc3c2)c(F)c1 [Compound 157]	TGF-β	100 to 1000 nM
Cc1ccccc1-c1nc2n(c1-c1ccc3ncsc3c1)CCC2 [Compound 305]	TGF-β	> 1000 nM
FC(F)(F)c1cccc(-c2nc3n(c2-c2ccc4[nH]ncc4c2)CCC3)c1 [Compound 181]	TGF-β	100 to 1000 nM
Cc1ccc(F)c(-c2nc3n(c2-c2ccc4nccnc4c2)CCC3)c1 [Compound 357]	TGF-β	< 50 nM
Nc1ncnc2ccc(-c3c(-c4cc(F)c(F)cc4F)nc4n3CCC4)cc12 [Compound 345]	TGF-β	50 to 100 nM
O=C(O)C1Cn2c(nc(-c3cc(F)cc(F)c3F)c2-c2ccc3nccnc3c2)N1 (stereo not drawn) [Compound 125]	TGF-β	< 50 nM
Cc1cc(-c2nc3n(c2-c2ccc4nccnc4c2)CCC3)cc(C)c1F [Compound 278]	TGF-β	> 1000 nM
Fc1ccc(-c2nc3n(c2-c2ccc4nccnc4c2)CCC3)c(F)c1 [Compound 204]	TGF-β	100 to 1000 nM
Fc1ccc(-c2nc3n(c2-c2ccc4[nH]ncc4c2)CCC3)c(F)c1 [Compound 201]	TGF-β	100 to 1000 nM
Cc1cc(-c2nc3n(c2-c2ccc4ncccc4c2)CCC3)c(F)cc1Cl [Compound 255]	TGF-β	> 1000 nM
COCCOc1cnc2ccc(-c3c(-c4cc(F)c(F)cc4F)nc4n3CCC4)cc2n1 [Compound 353]	TGF-β	100 to 1000 nM
Cc1cc(F)c(Cl)cc1-c1nc2n(c1-c1ccc3nccn3c1)CCC2 [Compound 57]	TGF-β	100 to 1000 nM

----------
System: TGF-β
Test: AlphaScreen SureFire p-SMAD3 (Ser423/425) assay, TGF-β-stimulated cells
Type: cell-based
Conditions: Mus musculus; p-SMAD3 (Ser423/425) AlphaScreen in cell lysate; MPC-11; TGF-β stimulation; read-out: TGF-β: inhibition of TGF-β signaling, TGF-β pSMAD (MPC-11)
pIC50: −log10 of the molar value.
Parameter: pIC50. Scope: all listed entries.
readoutLabel: pIC50

compound	result
Cc1cc(-c2nc3n(c2-c2ccc4nccnc4c2)CCC3)cc(Cl)c1F	< 6.00
Fc1cc(F)c(-c2nc3occn3c2-c2ccc3ncccc3c2)cc1F	7.00 to 7.30
Fc1ccccc1-c1nc2n(c1-c1ccc3ncsc3c1)CCC2	6.00 to 7.00
c1ccc(-c2nc3n(c2-c2ccc4nccnc4c2)CCC3)nc1	7.00 to 7.30
Cc1cc(-c2nc3n(c2-c2ccc4[nH]ncc4c2)CCC3)c(C)cc1F	< 6.00
Fc1ccccc1-c1nc2n(c1-c1ccc3ncccc3c1)CCC2	< 6.00
Fc1cc(-c2nc3n(c2-c2ccc4nccn4c2)CCC3)c(F)cc1Cl	< 6.00
Nc1ncnc2ccc(-c3c(-c4cc(F)cc(F)c4F)nc4n3CCC4)cc12	6.00 to 7.00
Cc1cccc(-c2nc3n(c2-c2ccc4[nH]ncc4c2)CCC3)c1	7.00 to 7.30
Fc1cc(F)c(-c2nc3n(c2-c2ccc4ncsc4c2)CCC3)cc1F	7.00 to 7.30
Cc1cccc(-c2nc3occn3c2-c2ccc3nccnc3c2)c1	> 7.30
Fc1ccc(-c2nc3occn3c2-c2ccc3nccnc3c2)c(F)c1F	6.00 to 7.00
OCC1Cn2c(nc(-c3cc(F)cc(F)c3F)c2-c2ccc3ncnn3c2)N1 (stereo not drawn)	> 7.30
Cc1cccc(-c2nc3n(c2-c2ccc4cn[nH]c4c2)CCC3)c1	7.00 to 7.30
Cc1cccc(-c2nc3occn3c2-c2ccc3cn[nH]c3c2)c1	> 7.30
Fc1ccc(-c2nc3n(c2-c2ccc4ncsc4c2)CCC3)cc1F	6.00 to 7.00
Cc1cc(-c2nc3n(c2-c2ccc4[nH]ncc4c2)CCC3)cc(C)c1F	< 6.00
Fc1ccc(-c2nc3n(c2-c2ccc4nccn4c2)CCC3)c(F)c1	6.00 to 7.00
Nc1ncnc2ccc(-c3c(-c4cc(F)cc(F)c4F)nc4n3CCN4)cc12	7.00 to 7.30
Cc1cc(F)c(-c2nc3n(c2-c2ccc4nccn4c2)CCC3)cc1F	< 6.00
Fc1ccc(-c2nc3occn3c2-c2ccc3ncccc3c2)c(F)c1	7.00 to 7.30
Fc1cc(F)c(-c2nc3n(c2-c2ccc4ncnn4c2)CCN3)cc1F	> 7.30
Fc1cccc(F)c1-c1nc2n(c1-c1ccc3ncccc3c1)CCC2	< 6.00
COc1c(C)cc(-c2nc3n(c2-c2ccc4nccn4c2)CCC3)cc1C	< 6.00
FC(F)(F)c1cccc(-c2nc3n(c2-c2ccc4ncsc4c2)CCC3)c1	6.00 to 7.00
Fc1cc(F)c(-c2nc3n(c2-c2ccc4nnc(C(F)(F)F)n4c2)CCC3)cc1F	< 6.00
Fc1ccc(-c2nc3n(c2-c2ccc4nccn4c2)CCC3)cc1Cl	6.00 to 7.00
Cc1c(F)ccc(-c2nc3n(c2-c2ccc4nccnc4c2)CCC3)c1Cl	< 6.00
CN(C)CCOc1cnc2ccc(-c3c(-c4cc(F)c(F)cc4F)nc4n3CCN4)cc2n1	> 7.30
Fc1cc(F)c(-c2nc3occn3c2-c2ccc3ncsc3c2)cc1F	> 7.30
[N-]=[N+]=NCC1CCC2(CC1)Cc1nc(-c3ccc(F)cc3)c(-c3ccc4ncnn4c3)n1C2 (stereo not drawn)	< 6.00
Fc1ccccc1-c1nc2n(c1-c1ccc3[nH]ncc3c1)CCC2	< 6.00
Cc1cc(F)c(Cl)cc1-c1nc2n(c1-c1ccc3[nH]ncc3c1)CCC2	< 6.00
c1ccc(-c2nc3n(c2-c2ccc4ncsc4c2)CCC3)nc1	> 7.30
CC(C)c1nnc2ccc(-c3c(-c4cc(F)c(F)cc4F)nc4n3CCC4)cn12	< 6.00
COc1cccc(-c2nc3n(c2-c2ccc4nccn4c2)CCC3)c1	6.00 to 7.00

Reference for the values: patent US10696693B2
